- Test system: velvetleaf (Abutilon theophrasti)
- experimental_protocol: Test C postemergence
- Assay type: in vivo
- measurement_conditions: Rate 250 g/ha, scale 0 to 100 (0 no effect, 100 complete control)
endpoint_label: Plant response rating, Velvetleaf

| molecule | measured_number |
| --- | --- |
| CCC(CC)c1ccn(C2CCN(c3ccc(C)c(OC)c3)C2=O)n1 (stereo not shown) [Compound 81] | 20 |
| CCC(CC)c1ccn(C2OCN(c3cccc(OC(F)F)c3)C2=O)n1 (stereo not shown) [Compound 131] | 20 |
| CC(C)(C)c1ccn(C2SCN(c3cccc(OC(F)F)c3)C2=O)n1 (stereo not shown) [Compound 36] | 30 |
| CCC(C)c1ccn(C2SCN(c3cccc(OC(F)(F)F)c3)C2=O)n1 (stereo not shown) [Compound 40] | 0 |
| CC(C)(C)c1ccn(C2SCN(c3cccc(OC(F)(F)F)c3)C2=O)n1 (stereo not shown) [Compound 30] | 50 |
| CCC(C)c1ccn(C2CCN(c3ccc(C)c(OC)c3)C2=O)n1 (stereo not shown) [Compound 80] | 20 |
| CCCC(C)c1ccn(C2CCN(c3ccc(Cl)c(OC)c3)C2=O)n1 (stereo not shown) [Compound 121] | 20 |

====

- System: crabgrass (Digitaria sanguinalis)
- experimental_protocol: Test B preemergence
- Format: in vivo
- measurement_conditions: preemergence; Rate 125 g/ha; scale of 0 to 100 where 0 is no effect and 100 is complete control; 13 to 15 days

| compound | Plant response rating, Crabgrass |
| --- | --- |
| CCCCC(CCCC)c1ccn(C2SCN(c3cccc(OC(F)(F)F)c3)C2=O)n1 (centres unmarked) | 0 |
| CCOC(=O)c1cccc(N2CCC(n3ccc(C(C)(C)C)n3)C2=O)c1 (centres unmarked) | 100 |
| CC(C)(C)c1ccn(C2CCN(c3ccc(F)c(Br)c3)C2=O)n1 (centres unmarked) | 100 |
| CC(C)(C)c1ccn(C2CCN(c3cccc(SC(F)(F)F)c3)C2=O)n1 (centres unmarked) | 20 |
| CCC(CC)c1ccn(C2CCN(c3cccc(OC(C)C)c3)C2=O)n1 (centres unmarked) | 100 |

====

- System: lambsquarters (Chenopodium album)
- experimental_protocol: Test B preemergence
- Type: in vivo
- measurement_conditions: Preemergence, Rate 500 g/ha; scale 0 to 100, 0 no effect, 100 complete control
Listed here: items and their measured Plant response rating, Lambsquarters.

| compound | target_entity | Plant response rating, Lambsquarters |
| --- | --- | --- |
| CCC(CC)c1ccn(C2OCN(c3cccc(OC(F)F)c3)C2=O)n1 (stereo not drawn) [Compound 131] | lambsquarters (Chenopodium album) | 100 |
| COC(=O)c1cccc(N2CCC(n3ccc(C(C)(C)C)n3)C2=O)c1 (stereo not drawn) [Compound 73] | lambsquarters (Chenopodium album) | 100 |
| CCC(C)c1ccn(C2OCN(c3cccc(C(F)(F)F)c3)C2=O)n1 (stereo not drawn) [Compound 24] | lambsquarters (Chenopodium album) | 100 |
| Cc1ccc(N2CCC(n3ccc(C(C)(C)C)n3)C2=O)cc1OC(C)C (stereo not drawn) [Compound 110] | lambsquarters (Chenopodium album) | 100 |
| CC(C)(C)c1ccn(C2SCN(c3cccc(OC(F)(F)F)c3)C2=O)n1 (stereo not drawn) [Compound 30] | lambsquarters (Chenopodium album) | 100 |
| CCCC(C)c1ccn(C2CCN(c3cccc(OC)c3)C2=O)n1 (stereo not drawn) [Compound 99] | lambsquarters (Chenopodium album) | 100 |
| CCCCC(CCCC)c1ccn(C2SCN(c3cccc(OC(F)(F)F)c3)C2=O)n1 (stereo not drawn) [Compound 115] | lambsquarters (Chenopodium album) | 0 |
| COc1ccn(C2CCN(c3cccc(C(F)(F)F)c3)C2=O)n1 (stereo not drawn) [Compound 60] | lambsquarters (Chenopodium album) | 0 |
| CCC(C)c1ccn(C2CCN(c3cccc(OC(C)C)c3)C2=O)n1 (stereo not drawn) [Compound 83] | lambsquarters (Chenopodium album) | 100 |
| Cc1cn(C2CCN(c3cccc(C(F)(F)F)c3)C2=O)nc1C(C)C (stereo not drawn) [Compound 17] | lambsquarters (Chenopodium album) | 0 |
| CC(C)(C)c1ccn(C2C(=O)N(c3cccc(C(F)(F)F)c3)C[S+]2[O-])n1 (stereo not drawn) [Compound 29] | lambsquarters (Chenopodium album) | 100 |
| CCCOC(=O)c1cccc(N2CCC(n3ccc(C(C)(C)C)n3)C2=O)c1 (stereo not drawn) [Compound 123] | lambsquarters (Chenopodium album) | 60 |
| CC1CCc2cn(C3CCN(c4cccc(C(F)(F)F)c4)C3=O)nc21 (stereo not drawn) [Compound 11] | lambsquarters (Chenopodium album) | 0 |
| CC(C)(C)c1ccn(C2CCN(c3cc(C(F)(F)F)cc(C(F)(F)F)c3)C2=O)n1 (stereo not drawn) [Compound 54] | lambsquarters (Chenopodium album) | 0 |
| Cc1ccc(N2CCC(n3ccc(C(C)(C)C)n3)C2=O)cc1Br (stereo not drawn) [Compound 35] | lambsquarters (Chenopodium album) | 100 |
| Cc1cc(C)nc(N2CCC(n3ccc(C(C)(C)C)n3)C2=O)c1 (stereo not drawn) [Compound 138] | lambsquarters (Chenopodium album) | 100 |
| CCC(CC)c1ccn(C2CCN(c3ccc(Br)c(OC)c3)C2=O)n1 (stereo not drawn) [Compound 143] | lambsquarters (Chenopodium album) | 100 |
| CCCOc1cc(N2CCC(n3ccc(C(C)(C)C)n3)C2=O)ccc1C (stereo not drawn) [Compound 107] | lambsquarters (Chenopodium album) | 100 |
| CC(C)c1ccn(C2OCN(c3cccc(OC(F)(F)F)c3)C2=O)n1 (stereo not drawn) [Compound 65] | lambsquarters (Chenopodium album) | 100 |
| O=C1C(n2ccc(C3CC3)n2)SCN1c1cccc(C(F)(F)F)c1 (stereo not drawn) [Compound 26] | lambsquarters (Chenopodium album) | 100 |
| CCCCC(C)c1ccn(C2SCN(c3cccc(C(F)(F)F)c3)C2=O)n1 (stereo not drawn) [Compound 103] | lambsquarters (Chenopodium album) | 100 |

====

- Tested on: pigweed (Amaranthus retroflexus)
- experimental_protocol: Test B postemergence
- Format: in vivo
- measurement_conditions: Rate 125 g/ha, scale 0 (no effect) to 100 (complete control), 13 to 15 days
- Protocol: […] At the same time, plants selected from these crop and weed species and also blackgrass (Alopecurus myosuroides), wheat (Triticum aestivum) and wild oat (Avena fatua) were treated with postemergence applications of test chemicals formulated in the same manner. […] Treated plants and controls were maintained in a greenhouse for 13 to 15 days, after which time all species were compared to controls and visually evaluated. […]
endpoint_label: Plant response rating, Pigweed

| molecule | endpoint_label | result |
| --- | --- | --- |
| Cc1ccc(N2CCC(n3ccc(C(C)(C)C)n3)C2=O)cc1Br (centres unmarked) | Plant response rating, Pigweed | 90 |
| CCC(C)c1ccn(C2CCN(c3ccc(C)c(OC)c3)C2=O)n1 (centres unmarked) | Plant response rating, Pigweed | 70 |
| CC(C)(C)c1ccn(C2SCN(c3cccc(OC(F)F)c3)C2=O)n1 (centres unmarked) | Plant response rating, Pigweed | 90 |
| CC(C)(C)c1ccn(C2CCN(c3ccc(F)c(Br)c3)C2=O)n1 (centres unmarked) | Plant response rating, Pigweed | 50 |
| CCOC(=O)c1cccc(N2CCC(n3ccc(C(C)(C)C)n3)C2=O)c1 (centres unmarked) | Plant response rating, Pigweed | 20 |

====

- Test system: Surinam grass (Brachiaria decumbens)
- experimental_protocol: Test C preemergence
- Assay type: in vivo
- measurement_conditions: preemergence, Rate 500 g/ha, visual evaluation after 12 to 14 days
- Description: […]
endpoint_label: Plant response rating (0 to 100), Surinam grass

| compound | measured_number |
| --- | --- |
| CSc1cccc(N2CCC(n3ccc(C(C)(C)C)n3)C2=O)c1 (centres unmarked) [Compound 86] | 30 |
| CCOc1cccc(N2CCC(n3ccc(C(C)C)n3)C2=O)c1 (centres unmarked) [Compound 128] | 100 |
| Cc1ccc(N2CCC(n3ccc(C(C)(C)C)n3)C2=O)cc1OC(F)F (centres unmarked) [Compound 79] | 100 |
| CCC(CC)c1ccn(C2CCN(c3cccc(OC(C)C)c3)C2=O)n1 (centres unmarked) [Compound 84] | 80 |
| CCCC(C)c1ccn(C2CCN(c3cccc(OCC)c3)C2=O)n1 (centres unmarked) [Compound 129] | 100 |
| CCCC(C)c1ccn(C2CCN(c3cccc(C(F)(F)F)c3)C2=O)n1 (centres unmarked) [Compound 100] | 30 |
| COc1cc(OC)cc(N2CCC(n3ccc(C(C)(C)C)n3)C2=O)c1 (centres unmarked) [Compound 71] | 90 |
| CCCC(C)c1ccn(C2OCN(c3cccc(OC(F)(F)F)c3)C2=O)n1 (centres unmarked) [Compound 91] | 80 |
| CCCC(C)c1ccn(C2CCN(c3cccc(OC)c3)C2=O)n1 (centres unmarked) [Compound 99] | 90 |
| CCC(C)c1ccn(C2CCN(c3cccc(OC(C)C)c3)C2=O)n1 (centres unmarked) [Compound 83] | 100 |
| CC1(c2ccn(C3SCN(c4cccc(C(F)(F)F)c4)C3=O)n2)CC1 (centres unmarked) [Compound 64] | 100 |
| CCCC(C)c1ccn(C2OCN(c3cccc(OC(F)F)c3)C2=O)n1 (centres unmarked) [Compound 132] | 100 |
| CC1(c2ccn(C3OCN(c4cccc(C(F)(F)F)c4)C3=O)n2)CC1 (centres unmarked) [Compound 62] | 80 |
| CCC(C)c1ccn(C2OCN(c3cccc(OC(F)(F)F)c3)C2=O)n1 (centres unmarked) [Compound 67] | 100 |
| CCC(C)Oc1cccc(N2CCC(n3ccc(C(C)(C)C)n3)C2=O)c1 (centres unmarked) [Compound 127] | 100 |
| CC(C)(C)c1ccn(C2CCN(c3ccc(F)c(Br)c3)C2=O)n1 (centres unmarked) [Compound 75] | 60 |
| CCC(CC)c1ccn(C2CCN(c3ccc(Cl)c(OC)c3)C2=O)n1 (centres unmarked) [Compound 118] | 50 |
